Reference for the values: the supplement of paper PMC9170038

System: MS2 coat protein
protocol_notes: apparent KD of MS2 coat protein; designed switch direction (-1 OFF switch, 1 ON switch): -1; higher = weaker reporter binding
assay_setup: input ligand: none
Label scheme for apparent KD of MS2 coat protein: lower than 100 nM is not met, 100 nM and above is met.

Please check the record UGACCUUUUGUCAGGAUAUAUAUACGUGUUGGUAGGUAGAAGGGACAUGAGGAUCACCCAUGUGGUUUGAGCUA [Eternabot (L1) Solution 74] (Eterna round: R97, puzzle: Brourd's mod of Exclusion 4) and state if its apparent KD of MS2 coat protein is at or above 100 nM.
met

Also, GCGGACUCGAUCGUGAGAUCGGAGACAUGAGGAUCACCCAUGUAGGAUAUCGAUUGCUUUGCAGUCGAGAAGGGCGUGGUCCGC [JL denovo 17] (Eterna round: R96, puzzle: Exclusion NG 3) please.
met

Also, CCAAUCAGAGGAUAUGCGAAUAAAUAAAACUUUUUUUUUUAACAUGAGGAUCACCCAUGUAGAAGGCUGUAACC [Ex2 #43] (Eterna round: R97, puzzle: Exclusion 2) please.
not met

Also, UUGUGCACGCUGCGGUCCUACAUGAGGAUCACCCAUGUGGUCUGGUGGCGUGGGUCGCCGGACUUGGCUCGUCUUGA [salish99_S_TOV1_R5_027] (Eterna round: R97, puzzle: Sensor, turn-off variant 1) please.
not met

Also, GUGUGUGAUGUAGGAUAUACGAGACAUGAGGAUCACCCAUGUGAGGGAAGGAGAAGGAGAAGAGAGUAGAAGGAUAGAGUGUGA [Default title] (Eterna round: R96, puzzle: Exclusion NG 2) please.
met

----------
Assignment: determine reported apparent KD of K4 kissing-loop reporter for the given sequences.
System: K4 kissing-loop RNA reporter
protocol_notes: apparent KD of K4 kissing-loop reporter; higher = weaker reporter binding
assay_setup: Eterna round: R107; input ligand: arginine 13.2 mM
Please state the number and follow it with the unit.

Suppose we examine the sequence CUAUGGAAACAUAGUGAGCGGGAAACCGAUACCAGUAUGGAAACAUACCCUUGGCAGCGGAAUGCUCAAACGGAGUGAUGUUCCG [Theophylline A K4 22] ; what apparent KD of K4 kissing-loop reporter value has been reported?
216 nM

Also, GUGAAGGAGCUGCAGUGAUGUUGCAGAGACUAGGAUAUCAGGAAACUGAGAAGGAGUCAACUCCUUCACCUAGACAACAUCACUA [[F]''-[K1]-[K2]-[F1]-[F2]-[F2]'-[F1]'-[K]'_Design2] please.
151 nM

Also, UCGCAUCUCAGAAGGAGCGACAGUGAUUCUGAUAGAAAUCUGAGUGAUGUUCAGAACAGCUGUCAGGUAGGUCGCUGAGAUGCGA [Arg B Ex t8] please.
384 nM

----------
Tested on: MS2 coat protein
protocol_notes: apparent KD of MS2 coat protein; designed switch direction (-1 OFF switch, 1 ON switch): 1; higher = weaker reporter binding
assay_setup: Eterna round: R95; input ligand: FMN 200 uM
recorded_endpoint: apparent KD of MS2 coat protein (nM)
// units = nM; emit number, no label

Suppose we examine the sequence AAUUCACGAGCACAGGAUAUGCUUGCCAACACAUGAGGAUCACCCAUGUCGGGCUACGAAUAAGAGCAGAAGGGUGACUCAUGAU [Atesusgela] (puzzle: Same State 2) ; what apparent KD of MS2 coat protein value has been reported?
16.8

Also, CAAACUUAGUAGGAUAGGUACCCAGGAUGACAUGAGGAUCACCCAUGUAAGAGCUUUUUGCUCGUCAUUAACAGUUG [JR_SHM208a_Sub017] (puzzle: Sensor for hsa-mir-208a) please.
51.7

Also, GUUAUACAUGAGGAUCACCCAUGUCAAUGUAGUCGAGGAUAUGGGUAGCCAUGAGGCGUACUAGAAGGCGAGGAGU [JL-ss1-3.19 ViennaUCT mod] (puzzle: Same State 1) please.
130

Also, AGUUGUGGAAAACUAUAGCAAAAGUAUGUACAUGAGGAUCACCCAUGUCAUGUACAAGCUUUUUGCUCGUCUUAAAA [ak 4 mod of one Eli's designs.] (puzzle: Sensor for hsa-mir-208a) please.
23

Also, AAAAGACAUGAGGAUCACCCAUGUAUGAAAAGUACAGGAUAUCACGAGCUAAAGUGCGAGUGAGAAGGGUGAAAAU [Araceesge] (puzzle: Same State 1) please.
60.9

Also, GGUCCAGCCUGAGCUGGACAAAAGCAUGUACAUGAGGAUCACCCAUGUUCAUGUACAAGCUUUUUGCUCGUCUUGCA [salish99_208a_r3_110x] (puzzle: Sensor for hsa-mir-208a) please.
639

Also, AGAGAACAUGAGGAUCACCCAUGUGGGAGAAACAUAGGAUAUAGGAGAGAGAGGGAGGAGCUAGAAGGAUGAUGGA [JR_SS1_Sub082] (puzzle: Same State 1) please.
80.5

Also, GGAGCCGGCACUGAGGAUAUUCAUAUUAAAACAUGAGGAUCACCCAUGUAGGCCAGAAGGCCUUGGGAGAAGGCGGGUCGACUCG [Diqureveri - 1] (puzzle: Same State 2) please.
29.7

Also, AGUCCAGCCUGAGCUGGACAAAAGCAUGUACAUGAGGAUCACCCAUGUCAUGUACAGGCUUUUUGCUCGUCUUAAAA [Zipper 46 - 8] (puzzle: Sensor for hsa-mir-208a) please.
213

Also, AACUAUCUAUCUCAGGAUAUCAUGUCAAAGACAUGAGGAUCACCCAUGUACCAGGAAACUGGUUAUGAGAAGGGAGAUAGAUAGA [Mat - Same State 2 - Mod - D38] (puzzle: Same State 2) please.
92.5

----------
Assignment: determine reported apparent KD of K4 kissing-loop reporter for the given sequences.
System: K4 kissing-loop RNA reporter;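 further: bound reporter read as fluorescence of individual clusters on recovered sequencing chips by microscopy, with normalized cluster intensities fitted with a binding model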
protocol_notes: apparent KD of K4 kissing-loop reporter; higher = weaker reporter binding
assay_setup: Eterna round: R107; input ligand: tryptophan 2.4 mM
// units = µM; emit number, no label

Suppose we examine the sequence CGAUUUGCUUCAGCCUUAGUGAUGUUAAGGCGAGGACCGGUACGGCCGCCACUCGUAGGUUAUGUGCACGGCGGCGCUAAGGGCC [theeternabot_exclusion_KL_Trp_A_36] ; what apparent KD of K4 kissing-loop reporter value has been reported?
0.108

Also, AGGCACGAGCAAGGAUAUCGAGUAGAGUGAUGUUCUGCCUGGGUUGGCUCGUAAGGGCCUUCCCAGCGAGAAGGUGCUCGUGCCU [#2 Same State - FMN A Attempt #15 (HarryS)] please.
0.757

Also, AAUAAGGUCGCCGAUACCAGCGCAGGCAGAGCAAAGCUCUGCCUGGUAGUGAUGUUACCGCGCCCUUGGCAGCGGUGGCACGACC [Omei KL Theo B SS C v5] please.
0.0859

Also, CCGUGGAGUGAUGUUCCACGUAAUACGGAUACCAGCUUUGCCAAAGGCCCUUGGCAGCCGCACGUUGCAGUGAUGUUGUGGCGCG [Same State Theophylline A G8] please.
0.149

Also, UGAUAGGACAGAAGGAGCGGGAGUGAUGUUCCCAAGGAUUGGUCUAGCAAAGCUGGACCCUCCCAGGUAGGUCGCUGUCCUAUCU [ArgBX 5 #SwitchBubble #StaticStem] please.
0.191

Also, GAGAUAGAGGCGGCCGCCACUAGUGAUGUUAGUGAUGUUAGAUAGAGAAUAUAACAGGGAUUAGAUAGGACCGGGCCAGAUGGAG ['lljullin] please.
0.1

Also, CCAGGAUGAUGAGGAUGAUAAAUUACUGAAGGAGCGCAUAUGGUUGCAGGUAGGUCGCGGUGAAUAAGUAUAGUGAUGUUAUGCC [SSArgA.Y] please.
0.761

Also, GGAGAGCGAAAAGGAUAUGCGUCCGUCAAAAUUAUGUAGCGCGGAAAAUGGUAGUGAUGUUGCAAAGCAGAAGGUUUCAGAUGUA [theeternabot_sameState_KL_FMN_B_43] please.
0.216

Also, UGUAUGUGAUUUGAUACCAGACCAGCUGGUGGUAUAUGAGUGAUGUUCAUGUUGGUGUGGGUCCCUUGGCAGCAAAUCGCAUACU [KL-SSTheoB9] please.
0.183

Also, UACAGGGAUAGUGAUGUUAUCCCAUGUGAUACCAGUGCCAUCCAACACCCUUGGCAGCAUACGGGCAGUGAUGUUGUUCUUGGUU [Exclusion Theophylline A GF 13] please.
0.0885

Also, AGACUACCACACUGUCAAUAGACAGUGAACUCGGAUAUGCUGAUAAGCAGAAGGAGUGAUGUUCCUAGGUAGUCAAUAAAAUAAU [FmnAX 13 C32] please.
0.359

Also, CCAUUCUUUUACGAUACCAGUCUAAUAUAUUUAAUCAAAACCCUCGCCGAGUGAUGUUCGGACCCUUGGCAGCGUCUGCGAGAGG [ettyxtkmullin] please.
0.495

Also, UUUUAAAUGUCUGAUACCAGAGAAAAUAUAUGUAGUGAUGUUAUAUACAAAUUAAAUAAGCUCCCUUGGCAGCAGUAUUAAUUUU [AstrosExc-TheB#10] please.
0.518

Also, UGACUGGACUGAAGGAGCGCAAAACUCCUAGUGAUGUUAGGAAAACGAGACAAAGUCUCGAUGCAGGUAGGUCGCAGUCUAGUCU please.
0.182

Also, GUAUAUUAGGGAGACCUAAUAUAAAUAGAAGGAGCGUAGGAAACUACAGGUAGGUCGCUAAAUAUACAGUGAUGUUGUAUAAUGG [arg a same] please.
0.141

Also, GUAGACAGACUGCAAGCCUAGUCUACAGACUAGGAUAUCAGGAAACUGAGAAGGAGUCUAGUUGCAGUGAUGUUGCAAGAAUAAU [KL-SSFMN-A24] please.
0.0998

Also, ACACAGAGUUGCCGAGUGAUGUUCGGCUUACGAGGACCGGUACGGCCGCCACUCGUUACUCUGUGUUUUGGACACCAAGGCGUAG [Edvemaquan] please.
0.169

Also, AUUUAUUCGUACUUUCAGUGAUGUUGAUAACGAGGACCGGUACGGCCGCCACUCGAUUUGGCGAUUUUGUAUUUUUUAUUCUAUA [JR_SSTryptoA_Sub010] please.
0.317

Also, AAAAUAAAUCAGUGAUGUUGGUAUCUGGAUACCAGCGAUAAUAGUCGCCCUUGGCAGCCAUGGACGUACAAAAUAAGUACGUCCU [MatMod 19 - Jieux - Same State - Theophylline A] please.
0.16

Also, CAUAUAUACACUAACCCGUACGGUAGUAAGCGAGGACCGGUACGGCCGCCACUCGAUCGUUUCGUGUUAGCACCAGUGAUGUUGG [theeternabot_sameState_KL_Trp_A_3] please.
0.392

Also, UUCUAACACACCGAUACCAGAGCCCAGUGAUGUUGGGCCUAGGUCGGAUGCUCACUGACGCUCCCUUGGCAGCGGUGGGCUAACC [Arreisve] please.
0.114

Also, AGUAUAGAGUCGGCCGCCACUGGUUUUAUGUGUGUCAAAUCUGGAUCAAAGUGAUGUUUUGAGACUAGGACCGGGACCAUUGUUA [#06 K4 Tryptophan B Exclusion] please.
0.206

Also, GACGGGUUGCUGCUCAAUCCGUCGCAUGAUCGAGGACCGGUACGGCCGCCACUCGAGGCCAUGCCGUACGAGUGAUGUUCGUGCG [Xeerlaus] please.
0.19
